Just for reference, patent US20210139581A1 is where these values come from.

Below is a list of entries, each paired with its recorded Maximal Downregulation (% CD33 remaining) value.
target: human CD33 on primary human monocyte-derived dendritic cells (human, UniProt P20138 18-364); assay: cell-based or functional assay
Sequence (P20138 18-364): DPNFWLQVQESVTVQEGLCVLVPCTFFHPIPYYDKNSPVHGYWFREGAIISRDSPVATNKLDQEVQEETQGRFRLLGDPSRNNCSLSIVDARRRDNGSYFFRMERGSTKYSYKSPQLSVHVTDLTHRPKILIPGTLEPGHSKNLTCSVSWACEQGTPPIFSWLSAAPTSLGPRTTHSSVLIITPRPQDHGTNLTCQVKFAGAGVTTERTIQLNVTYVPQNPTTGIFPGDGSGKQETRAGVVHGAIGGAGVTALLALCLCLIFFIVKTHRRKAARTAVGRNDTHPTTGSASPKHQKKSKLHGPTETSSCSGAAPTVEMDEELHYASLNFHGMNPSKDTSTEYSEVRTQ
Provide only the numeric value, understood in %.

Past entries and their recorded results:
Chimeric Ab (antibody, V domains shown, Chimeric antibody with the variable regions of murine 2F5.1; also called parental antibody; comparator antibody) VH: EVQLQQSGPELVKPGASVKISCKASGYTFTDYNLHWVKLSHGKSLEWIGFIYPSNGITGYNQKFKNKATLTVDNSSSTAYMELRSLTSEDSAVYYCARSTVDYFDYWGQGTTLTVSS VL: DIVLTQSPASLAVSLGQRATMSCRASQSVSTSTYSYMHWYQQKPGQPPKLLIKYASNLESGVPARFSGSGSGTDFTLNIHPVEEEDTATYYCQHSWEIPLTFGAGTKLELK
24.1
AB-64.1.2 (antibody, V domains shown, Variant of AB-64.1) VH: QVQLVQSGAEVKKPGASVKISCKASGYTFTDYNLHWVRQAPGQGLEWIGFIYPSNRITGYAQKFQGRATLTVDNSTSTAYMELSSLRSEDTAVYYCARSDVDYFDYWGQGTLLTVSS VL: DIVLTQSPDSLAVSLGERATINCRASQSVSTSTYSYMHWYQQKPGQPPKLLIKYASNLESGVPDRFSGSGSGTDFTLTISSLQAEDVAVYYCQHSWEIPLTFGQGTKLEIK
24.8
AB-64.1.8 (antibody, V domains shown, Variant of AB-64.1) VH: QVQLVQSGAEVKKPGASVKISCKASGYTFTDYNLHWVRQAPGQGLEWIGFIYPSNQITGYAQKFQGRATLTVDNSASTAYMELSSLRSEDTAVYYCARSDVDYFDYWGQGTLLTVSS VL: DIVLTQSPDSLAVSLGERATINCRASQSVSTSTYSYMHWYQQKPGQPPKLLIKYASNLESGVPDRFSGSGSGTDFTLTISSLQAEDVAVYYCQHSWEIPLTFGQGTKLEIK
30.1
AB-64.1 (antibody, V domains shown) VH: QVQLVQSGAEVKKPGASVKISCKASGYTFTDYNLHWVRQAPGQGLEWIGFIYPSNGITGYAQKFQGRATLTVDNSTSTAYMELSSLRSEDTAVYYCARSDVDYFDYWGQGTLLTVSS VL: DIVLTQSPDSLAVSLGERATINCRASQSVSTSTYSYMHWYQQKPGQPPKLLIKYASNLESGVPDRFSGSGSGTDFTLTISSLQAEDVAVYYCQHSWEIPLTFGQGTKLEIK
27.3
AB-64.2 (antibody, V domains shown) VH: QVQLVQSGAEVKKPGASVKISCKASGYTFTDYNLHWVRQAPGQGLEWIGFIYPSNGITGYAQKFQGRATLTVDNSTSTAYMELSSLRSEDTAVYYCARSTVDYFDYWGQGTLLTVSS VL: DIVLTQSPDSLAVSLGERATINCRVSQDVSTSTYSYMHWYQQKPGQPPKLLIKYASNLESGVPDRFSGSGSGTDFTLTISSLQAEDVAVYYCQHSWEIPLTFGQGTKLEIK
26.8
AB-64.7 (antibody, V domains shown) VH: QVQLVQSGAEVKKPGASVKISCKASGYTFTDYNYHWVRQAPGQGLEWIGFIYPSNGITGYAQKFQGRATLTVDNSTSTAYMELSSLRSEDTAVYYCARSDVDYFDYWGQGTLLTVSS VL: DIVLTQSPDSLAVSLGERATINCRASQSVGTSTYSYMHWYQQKPGQPPKLLIKYASNLNSGVPDRFSGSGSGTDFTLTISSLQAEDVAVYYCQHSEEIPLTFGQGTKLEIK
31.2
Chimeric Ab #2 (antibody, V domains shown, Chimeric Ab with a VH-FR3 mutation that removes the predicted N-glycosylation site) VH: EVQLQQSGPELVKPGASVKISCKASGYTFTDYNLHWVKLSHGKSLEWIGFIYPSNGITGYNQKFKNKATLTVDTSSSTAYMELRSLTSEDSAVYYCARSTVDYFDYWGQGTTLTVSS VL: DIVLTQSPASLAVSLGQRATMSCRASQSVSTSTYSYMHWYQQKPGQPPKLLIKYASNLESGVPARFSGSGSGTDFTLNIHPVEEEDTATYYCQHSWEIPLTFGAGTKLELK
23.2
AB-64.6 (antibody, V domains shown) VH: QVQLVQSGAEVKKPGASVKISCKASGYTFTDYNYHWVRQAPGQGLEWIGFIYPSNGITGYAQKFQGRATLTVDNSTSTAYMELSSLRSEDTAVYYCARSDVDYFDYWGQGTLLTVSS VL: DIVLTQSPDSLAVSLGERATINCRASQDVSTSTYSYMHWYQQKPGQPPKLLIKYASFLESGVPDRFSGSGSGTDFTLTISSLQAEDVAVYYCQHSWEIPLTFGQGTKLEIK
30.6

Proceeding to the next binder to report its Maximal Downregulation (% CD33 remaining).
Reported Maximal Downregulation (% CD33 remaining), binder AB-H64 (antibody, V domains shown, Humanized variant of murine 2F5.1; also called parental humanized antibody) VH: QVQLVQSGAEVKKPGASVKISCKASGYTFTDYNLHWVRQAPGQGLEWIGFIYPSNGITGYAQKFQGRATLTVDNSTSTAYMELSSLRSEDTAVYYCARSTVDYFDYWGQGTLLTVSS VL: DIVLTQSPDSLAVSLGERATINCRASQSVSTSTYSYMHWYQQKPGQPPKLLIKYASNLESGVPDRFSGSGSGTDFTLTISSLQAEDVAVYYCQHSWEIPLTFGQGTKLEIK : ____ 22.4
